Source of measurements: patent US20140378451A1

# target: hCB2R (Homo sapiens)
# Construct: unnamed tag of the plasmid
# Sequence (P34972 whole entry): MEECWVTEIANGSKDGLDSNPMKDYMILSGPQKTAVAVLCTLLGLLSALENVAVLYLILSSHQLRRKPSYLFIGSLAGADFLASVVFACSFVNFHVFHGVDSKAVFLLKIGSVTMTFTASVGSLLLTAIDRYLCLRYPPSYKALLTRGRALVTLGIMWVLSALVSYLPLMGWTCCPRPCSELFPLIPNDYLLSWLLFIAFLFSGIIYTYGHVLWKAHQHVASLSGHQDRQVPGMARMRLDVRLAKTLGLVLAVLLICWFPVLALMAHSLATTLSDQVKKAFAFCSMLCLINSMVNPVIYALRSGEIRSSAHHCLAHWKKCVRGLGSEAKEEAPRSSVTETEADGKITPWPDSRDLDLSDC
# protocol: cAMP assay on hCB2R clone 3D8.3 (transfected CHO-K1 cells)
# test settings: cAMP, hCNR2 CHO-K1 3D8.3 clone; read-out: Assay 1 IC50
measured endpoint: IC50 (µM)

A. N#Cc1ccccc1CSc1nnc2c3ccccc3n(C(=O)C3CC3)c2n1 [Example 42]
B. N#Cc1ccccc1CSc1nnc2c3ccccc3n(C(=O)C3CCCC3)c2n1 [Example 22]
Lookup: Smaller IC50 value, A vs B ? Could you answer with the label of the item you picked?
Found: B
(B: 0.014 µM, A: 0.181 µM)

P. COc1ccc(-c2cccc3[nH]c4nc(SCc5ccccc5C#N)nnc4c23)cc1 [Example 49]
Q. CCCCn1c2ccccc2c2nnc(SCc3ccccc3C#N)nc21 [Example 31]
Lookup: Which gives the smaller IC50 number: P or Q ? Indicate your choice by writing its label.
Found: Q
(Q: 0.106 µM, P: 2.62 µM)

a. O=[N+]([O-])c1cccc(F)c1CSc1nnc2c(n1)[nH]c1ccccc12 [Example 12]
b. O=[N+]([O-])c1ccccc1CSc1nnc2c3ccccc3n(Cc3ccccc3F)c2n1 [Example 13]
Lookup: # argmax over IC50 for candidates a and b Write down the label attached to your selection.
Found: a
(a: 1.9 µM, b: 0.201 µM)

I. N#Cc1ccccc1CSc1nnc2c(n1)[nH]c1cccc(-c3ccsc3)c12 [Example 50]
II. N#Cc1ccccc1CSc1nnc2c(n1)[nH]c1ccccc12 [Example 2]
Lookup: For the pair I and II , which entry has the numerically smaller recorded IC50? # respond with the chosen item's label
Found: II
(II: 0.16 µM, I: 1.76 µM)

###

# target: hCNR2 (CB2R) (Homo sapiens)
# Sequence (P34972 whole entry): as above
# protocol: DiscoveRx cAMP Hunter Express GPCR assay (hCNR2 CHO-K1 cells)
# test settings: cAMP Hunter eXpress, hCNR2 CHO-K1 cells; read-out: Assay 2 IC50
pIC50: −log10 of the molar value.
measured endpoint: pIC50

1. N#Cc1ccccc1CSc1nnc2c3ccccc3n(Cc3ccccc3[N+](=O)[O-])c2n1 [Example 10]
2. CCCCSc1nnc2c(n1)[nH]c1ccccc12 [Example 28]
Lookup: For the pair 1 and 2 , which member has the lower pIC50 number? Which one? Tell me its label.
Found: 2

1. N#Cc1ccccc1CSc1nnc2c3ccccc3n(C(=O)c3ccc(F)cc3)c2n1 [Example 20]
2. N#Cc1ccccc1CSc1nnc2c3ccccc3n(Cc3ccccc3)c2n1 [Example 3]
Lookup: Identify the item whose pIC50 is the smaller number: 1 or 2 Indicate your choice by writing its label.
Found: 2

###

# target: hCNR2 (CB2R) (Homo sapiens)
# Construct: host or cells: CHO-K1 (purchased recombinant cell line)
# protocol: DiscoveRx cAMP Hunter Express GPCR assay (hCNR2 CHO-K1 cells)
# Assay type: cell-based
# test settings: cAMP Hunter eXpress, hCNR2 CHO-K1 cells; read-out: Assay 2 IC50
measured endpoint: IC50 (nM)

Below are worked cases with known answers.
Lookup: Notebook: pull reported IC50 for hCNR2 (CB2R) (Homo sapiens), entry O=[N+]([O-])c1ccccc1CSc1nnc2c3ccccc3n(Cc3ccccc3F)c2n1
Found: 201

Lookup: Fill in the recorded IC50 for this compound, with hCNR2 (CB2R) (Homo sapiens) as test system: O=[N+]([O-])c1ccccc1CSc1nnc2c(n1)[nH]c1ccccc12
Found: 33

Lookup: Please state recorded IC50 (tested on hCNR2 (CB2R) (Homo sapiens)) of N#Cc1ccccc1CSc1nnc2c(n1)[nH]c1cccc(Br)c12
Found: 39

Lookup: Find IC50 (hCNR2 (CB2R) (Homo sapiens)) for the entry COC(=O)CCCC(=O)n1c2ccccc2c2nnc(SCc3ccccc3C#N)nc21
Found: 42

Lookup: Recorded IC50 for N#Cc1ccccc1CSc1nnc2c3ccccc3n(C(=O)c3cccc(C(F)(F)F)c3)c2n1 with hCNR2 (CB2R) (Homo sapiens), please?
Found: 27

1. N#Cc1ccccc1CSc1nnc2c3ccccc3n(C(=O)C3CCCCC3)c2n1
2. N#Cc1ccccc1CSc1nnc2c3ccccc3n(C(=O)c3ccc(OC(F)(F)F)cc3)c2n1
3. N#Cc1ccccc1CSc1nnc2c(n1)[nH]c1ccccc12
4. COC(=O)CCC(=O)n1c2ccccc2c2nnc(SCc3ccccc3C#N)nc21
Lookup: Order these by IC50, descending, and give the full ranking. The response must list the labels following the requested ordering.
Found: 3, 2, 4, 1
